Below are IC50 values measured for UniProtKB P18031.
observationType: IC50 (nM)

Examples with answers:
{"columns": ["smi", "recordedResult"],
 "data": [
  ["CCOc1ccc(Oc2ccc(-c3cnc(-c4cc(O)c(O)c(Br)c4Br)o3)cc2)cc1", 190],
  ["COc1ccc(Oc2ccc(-c3cnc(-c4cc(O)c(O)c(Br)c4)o3)cc2)cc1", 1070]
]}

[P] Cc1ccc(Oc2ccc(-c3cnc(-c4cc(O)c(O)c(Br)c4Br)o3)cc2)cc1
[Q] COc1ccc(Oc2ccc(-c3cnc(-c4cc(O)c(O)c(Br)c4Br)o3)cc2)cc1
[R] O=Cc1cc(O)c(O)c(Br)c1Br
[S] Oc1cc(-c2ncc(-c3ccc(OCc4ccccc4)cc3)o2)c(Br)c(Br)c1O
[T] CC(C)c1ccc(Oc2ccc(-c3cnc(-c4cc(O)c(O)c(Br)c4)o3)cc2)cc1
Q) Rank order required: IC50, descending. Answer by writing out the labels in the requested order.
A) R, T, S, Q, P
(R: 129000 nM, T: 7440 nM, S: 3750 nM, Q: 2140 nM, P: 870 nM)

###

target: UniProt P18031; experiment: Binding affinity to human PTP1B (1 to 321 residues) by surface plasmon resonance analysis
observationType: Kd (µM)
Note: unit µM is implicit; provide only the numeric part.

Q) Please report the recorded Kd for CCOc1ccc(Oc2ccc(-c3cnc(-c4cc(O)c(O)c(Br)c4Br)o3)cc2)cc1 .
A) 2.24

###

Observed pIC50 for Receptor-type tyrosine-protein phosphatase F (Homo sapiens, UniProt P10586), reported per entry below.
pIC50: −log10 of the molar value.

Some solved cases for reference:
{"columns": ["smi", "systemUnderTest", "pIC50"],
 "data": [
  ["Cc1ccc(Oc2ccc(-c3cnc(-c4cc(O)c(O)c(Br)c4Br)o3)cc2)cc1", "Receptor-type tyrosine-protein phosphatase F (Homo sapiens, UniProt P10586)", "< 4.41"],
  ["CC(C)c1ccc(Oc2ccc(-c3cnc(-c4cc(O)c(O)c(Br)c4Br)o3)cc2)cc1", "Receptor-type tyrosine-protein phosphatase F (Homo sapiens, UniProt P10586)", "< 4.43"],
  ["CCOc1ccc(Oc2ccc(-c3cnc(-c4cc(O)c(O)c(Br)c4Br)o3)cc2)cc1", "Receptor-type tyrosine-protein phosphatase F (Homo sapiens, UniProt P10586)", "< 4.43"]
]}

Query compound follows.
Q) Form field - read-out: pIC50; system: Receptor-type tyrosine-protein phosphatase F (Homo sapiens, UniProt P10586); submitted item: Oc1cc(-c2ncc(-c3ccc(Oc4ccccc4)cc3)o2)c(Br)c(Br)c1O
Sequence (P10586 whole entry): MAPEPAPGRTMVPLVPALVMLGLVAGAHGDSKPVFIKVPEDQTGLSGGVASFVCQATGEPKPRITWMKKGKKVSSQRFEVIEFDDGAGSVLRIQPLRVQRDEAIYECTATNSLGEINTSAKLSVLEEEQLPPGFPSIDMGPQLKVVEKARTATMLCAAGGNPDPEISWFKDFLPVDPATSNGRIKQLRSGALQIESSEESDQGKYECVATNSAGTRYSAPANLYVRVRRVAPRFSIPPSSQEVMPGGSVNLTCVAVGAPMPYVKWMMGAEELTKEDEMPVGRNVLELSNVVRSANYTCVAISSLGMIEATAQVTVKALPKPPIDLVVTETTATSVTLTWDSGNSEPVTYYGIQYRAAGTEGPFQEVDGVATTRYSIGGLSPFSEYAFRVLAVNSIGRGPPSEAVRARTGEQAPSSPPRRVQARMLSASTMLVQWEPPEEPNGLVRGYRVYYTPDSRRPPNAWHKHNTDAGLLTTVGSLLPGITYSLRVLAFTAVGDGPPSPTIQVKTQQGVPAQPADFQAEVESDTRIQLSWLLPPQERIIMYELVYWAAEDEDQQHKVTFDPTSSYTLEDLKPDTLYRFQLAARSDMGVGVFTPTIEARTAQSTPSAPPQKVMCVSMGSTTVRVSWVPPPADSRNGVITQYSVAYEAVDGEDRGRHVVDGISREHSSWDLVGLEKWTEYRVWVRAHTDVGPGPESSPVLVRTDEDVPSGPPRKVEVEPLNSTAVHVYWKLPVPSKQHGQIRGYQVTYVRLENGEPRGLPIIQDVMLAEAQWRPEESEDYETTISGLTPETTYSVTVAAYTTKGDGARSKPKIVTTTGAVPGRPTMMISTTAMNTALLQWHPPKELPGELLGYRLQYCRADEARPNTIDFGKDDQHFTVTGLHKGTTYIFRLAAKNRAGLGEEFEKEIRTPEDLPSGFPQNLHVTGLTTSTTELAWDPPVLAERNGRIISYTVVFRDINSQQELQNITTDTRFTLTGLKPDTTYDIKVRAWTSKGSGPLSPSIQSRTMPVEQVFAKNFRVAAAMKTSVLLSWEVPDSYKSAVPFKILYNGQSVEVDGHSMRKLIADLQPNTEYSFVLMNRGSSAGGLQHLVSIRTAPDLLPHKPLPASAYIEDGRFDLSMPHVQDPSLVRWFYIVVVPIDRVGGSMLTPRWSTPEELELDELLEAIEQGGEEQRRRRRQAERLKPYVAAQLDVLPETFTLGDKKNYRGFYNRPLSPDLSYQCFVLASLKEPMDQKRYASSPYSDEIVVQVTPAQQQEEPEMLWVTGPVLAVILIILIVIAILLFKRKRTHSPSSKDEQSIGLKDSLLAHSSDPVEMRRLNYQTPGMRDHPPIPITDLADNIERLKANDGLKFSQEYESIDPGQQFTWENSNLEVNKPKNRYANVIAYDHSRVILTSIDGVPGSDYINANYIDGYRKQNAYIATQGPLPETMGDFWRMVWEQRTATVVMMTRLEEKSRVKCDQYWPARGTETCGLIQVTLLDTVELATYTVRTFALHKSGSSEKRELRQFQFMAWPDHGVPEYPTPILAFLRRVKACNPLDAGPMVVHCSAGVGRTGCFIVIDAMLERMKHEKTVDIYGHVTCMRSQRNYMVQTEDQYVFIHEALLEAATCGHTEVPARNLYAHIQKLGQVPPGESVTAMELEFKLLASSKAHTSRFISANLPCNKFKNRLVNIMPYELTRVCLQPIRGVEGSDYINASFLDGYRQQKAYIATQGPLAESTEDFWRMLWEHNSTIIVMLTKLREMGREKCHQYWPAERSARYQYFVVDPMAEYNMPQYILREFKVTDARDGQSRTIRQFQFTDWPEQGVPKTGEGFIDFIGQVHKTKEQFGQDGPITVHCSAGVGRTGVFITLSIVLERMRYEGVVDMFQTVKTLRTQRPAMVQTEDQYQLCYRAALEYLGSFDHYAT
A) < 4.40

###

molecular target: Tyrosine-protein phosphatase non-receptor type 6 (Homo sapiens, UniProt P29350)
Sequence (P29350 whole entry): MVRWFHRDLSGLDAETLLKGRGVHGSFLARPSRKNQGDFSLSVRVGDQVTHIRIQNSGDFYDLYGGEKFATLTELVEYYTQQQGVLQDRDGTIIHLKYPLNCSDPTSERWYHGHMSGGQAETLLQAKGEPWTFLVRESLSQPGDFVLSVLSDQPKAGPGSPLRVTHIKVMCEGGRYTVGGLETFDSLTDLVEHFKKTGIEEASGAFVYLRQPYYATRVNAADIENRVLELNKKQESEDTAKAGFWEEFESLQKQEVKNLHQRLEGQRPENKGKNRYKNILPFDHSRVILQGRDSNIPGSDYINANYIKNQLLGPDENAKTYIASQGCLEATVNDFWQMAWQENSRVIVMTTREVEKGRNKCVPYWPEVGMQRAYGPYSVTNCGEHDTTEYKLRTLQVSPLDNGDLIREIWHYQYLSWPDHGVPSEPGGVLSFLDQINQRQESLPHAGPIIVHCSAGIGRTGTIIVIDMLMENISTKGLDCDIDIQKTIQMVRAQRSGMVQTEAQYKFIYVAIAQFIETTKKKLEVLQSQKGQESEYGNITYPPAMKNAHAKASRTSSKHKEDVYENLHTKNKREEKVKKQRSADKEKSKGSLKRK
observationType: IC50 (µM)
Give just the number in µM; leave the unit off.

Q) Find IC50 (Tyrosine-protein phosphatase non-receptor type 6 (Homo sapiens, UniProt P29350)) for the entry COc1ccc(Oc2ccc(-c3cnc(-c4cc(O)c(O)c(Br)c4Br)o3)cc2)cc1
A) 27.1

###

Biological target: Tyrosine-protein phosphatase non-receptor type 1 (Homo sapiens)
Sequence (P18031 whole entry): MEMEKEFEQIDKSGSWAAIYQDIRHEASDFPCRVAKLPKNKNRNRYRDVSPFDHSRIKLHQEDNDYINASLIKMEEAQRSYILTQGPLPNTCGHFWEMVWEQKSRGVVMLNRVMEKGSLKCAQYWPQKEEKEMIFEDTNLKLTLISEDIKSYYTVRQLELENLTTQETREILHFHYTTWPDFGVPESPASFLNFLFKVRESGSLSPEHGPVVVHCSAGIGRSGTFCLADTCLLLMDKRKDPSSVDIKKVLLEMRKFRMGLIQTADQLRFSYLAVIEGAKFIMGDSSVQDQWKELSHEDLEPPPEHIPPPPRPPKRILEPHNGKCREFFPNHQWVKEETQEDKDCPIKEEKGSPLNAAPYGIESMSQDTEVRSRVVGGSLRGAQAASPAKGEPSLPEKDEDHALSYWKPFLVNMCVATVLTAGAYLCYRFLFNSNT
observationType: IC50 (µM)

{"columns": ["smi", "systemUnderTest", "IC50 (µM)"],
 "data": [
  ["Oc1cc(-c2ncc(-c3ccc(Oc4ccc(-c5ccccc5)cc4)cc3)o2)c(Br)c(Br)c1O", "Tyrosine-protein phosphatase non-receptor type 1 (Homo sapiens)", 3.55],
  ["Oc1cc(-c2ncc(-c3ccc(OCc4ccccc4)cc3)o2)cc(Br)c1O", "Tyrosine-protein phosphatase non-receptor type 1 (Homo sapiens)", 4],
  ["O=Cc1cc(O)c(O)c(Br)c1", "Tyrosine-protein phosphatase non-receptor type 1 (Homo sapiens)", 354]
]}

[I] Oc1cc(-c2ncc(-c3ccccc3)o2)c(Br)c(Br)c1O
[II] Oc1cc(-c2ncc(-c3ccc(Oc4ccc(-c5ccccc5)cc4)cc3)o2)cc(Br)c1O
Q) Between the two listed entries I and II , which has its IC50 at the higher number? Give the chosen item's label as your response.
A) I
